- Species on record: Oryctolagus cuniculus
- Measurement description: Compound was tested for the muscle-relaxing activity in rabbits
- Format: functional
Reported ED50 values for a set of molecules
Your answer should be a plain number; it is taken to be in mg/kg.

Form field ED50, entry Cc1ccc2c(c1)N=C(N1CCN(C)CC1)c1ccccc1/C2=C/C#N : 0.25

Form field ED50, entry Cc1ccc2c(c1)N=C(N1CCN(C)CC1)c1ccccc1/C2=C\C#N : 0.014

Form field ED50, entry CN1CCN(C2=Nc3ccccc3C(=CC#N)c3ccccc32)CC1 : 0.059

Form field ED50, entry CN1CCN(C2=Nc3cc(Cl)ccc3Nc3ccccc32)CC1 [CLOZAPINE] : 0.028

====

Reported ED50 values for a set of compounds
- Organism: Oryctolagus cuniculus
- Measurement description: Compound was tested for the muscle-relaxing activity in rabbits
- Format: functional
Your answer should be a plain number; it is taken to be in mg/kg.

Form field ED50, entry Cc1ccc2c(c1)N=C(N1CCN(C)CC1)c1ccccc1C2=CC#N : 0.028

Field: next compound
Form field ED50, entry CN1CCN(C2=Nc3ccccc3/C(=C/C#N)c3ccccc32)CC1 : 0.046

====

Reported Relative activity values for a set of compounds
- Organism: Mus musculus
- Measurement description: Sedative activity relative with respect to clozapine.
- Type: functional
Quick one: just the number, no unit, thanks!

Form field Relative activity, entry CN1CCCCC1COC1=Nc2ccccc2/C(=C/C#N)c2ccccc21 (configuration not stated) : 0.11

Form field Relative activity, entry CN1CCN(CCNC2=Nc3ccccc3/C(=C/C#N)c3ccccc32)CC1 : 0.17

Further cases:
Form field Relative activity, entry N#C/C=C1/c2ccccc2N=C(N2CCN(CCN3CCOC3=O)CC2)c2ccccc21 : 0.12

Form field Relative activity, entry N#C/C=C1/c2ccccc2N=C(NCCN2CCOCC2)c2ccccc21 : 0.58

Form field Relative activity, entry CN(C)CCNC1=Nc2ccccc2/C(=C/C#N)c2ccccc21 : 0.31

Form field Relative activity, entry N#C/C=C1/c2ccccc2N=C(NCCN2CCCC2)c2ccccc21 : 0.96

====

Reported Relative activity values for a set of compounds
- Species on record: Mus musculus
- Measurement description: Sedative activity relative with respect to clozapine.
- Type: functional
Quick one: just the number, no unit, thanks!

Form field Relative activity, entry Cc1ccc2c(c1)N=C(N1CC[N+](C)([O-])CC1)c1ccccc1/C2=C/C#N : 1.78

Field: next compound
Form field Relative activity, entry C[N+]1([O-])CCN(C2=Nc3ccccc3/C(=C\C#N)c3ccccc32)CC1 : 0.04

====

- Species on record: Mus musculus
- Measurement description: Sedative activity relative with respect to clozapine.
- Assay type: functional
Readout type: Relative activity

Record excerpt, results attached:
Form field Relative activity, entry N#C/C=C1/c2ccccc2N=C(N2CCC(O)(c3ccccc3)CC2)c2ccccc21 : <0.1

Form field Relative activity, entry N#C/C=C1/c2ccccc2N=C(N2CCOCC2)c2ccccc21 : < 0.04

Form field Relative activity, entry CN(C)CCCOC1=Nc2ccccc2/C(=C/C#N)c2ccccc21 : <0.04

Form field Relative activity, entry CN(C)CCCNC1=Nc2ccccc2/C(=C/C#N)c2ccccc21 : <0.1

Form field Relative activity, entry CN1CCCC(COC2=Nc3ccccc3/C(=C/C#N)c3ccccc32)C1 (centres undefined) : <0.1

Form field Relative activity, entry CN1CCN(C2=Nc3ccccc3/C(=C\C#N)c3ccccc32)CC1 : <0.2

Form field Relative activity, entry CCN(CC)CCNC1=Nc2ccccc2/C(=C/C#N)c2ccccc21 : 0.83

Form field Relative activity, entry N#C/C=C1/c2ccccc2N=C(N2CCN(CCO)CC2)c2ccccc21 : 0.32

Form field Relative activity, entry Cc1ccc2c(c1)N=C(N1CCN(CCN3CCOC3=O)CC1)c1ccccc1/C2=C\C#N : 0.5

Form field Relative activity, entry N#C/C=C1/c2ccccc2N=C(N2CCNCC2)c2ccccc21 : 0.15

Further cases:
Form field Relative activity, entry CN1CCCC(CNC2=Nc3ccccc3/C(=C/C#N)c3ccccc32)C1 (centres undefined) : <0.04

Form field Relative activity, entry CN1CCC(NC2=Nc3ccccc3/C(=C/C#N)c3ccccc32)CC1 : <0.04

Form field Relative activity, entry N#C/C=C1/c2ccccc2N=C(N2CC[N+]([O-])(CCO)CC2)c2ccccc21 : 0.46

Form field Relative activity, entry C[N+]1([O-])CCCC(COC2=Nc3ccccc3/C(=C/C#N)c3ccccc32)C1 (centres undefined) : <0.04
